# Target system: Tel-TrkA (Homo sapiens, UniProt P04629)
# Construct: dimerization domain of Tel (ETV6) transcription factor (fusion partner, human ETV6 P41212); expressed in transfected cells; host or cells: luciferase expressing Ba/F3 murine hematopoietic progenitor cells; the other entry of the earlier key: ETV6 (P41212, Transcription factor ETV6)
# Sequence (P04629 510-796 limits assumed): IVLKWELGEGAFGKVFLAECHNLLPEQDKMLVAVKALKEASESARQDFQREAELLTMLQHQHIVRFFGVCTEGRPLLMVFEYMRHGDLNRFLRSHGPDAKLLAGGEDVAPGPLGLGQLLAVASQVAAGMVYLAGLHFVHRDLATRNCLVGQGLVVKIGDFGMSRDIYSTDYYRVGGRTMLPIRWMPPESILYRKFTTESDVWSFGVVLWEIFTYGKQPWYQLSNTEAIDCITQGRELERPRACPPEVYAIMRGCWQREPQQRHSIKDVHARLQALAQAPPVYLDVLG
# Test protocol: Inhibition of proliferation of Ba/F3 cells expressing Tel-TrkA (BaF3/Tel-TrkA, luciferase/Bright Glo readout)
# Type: cell-based
# Experimental setup: read-out: Ba/F3 Tel-TrkA IC 50
Assay metric: IC50 (nM)
Write it as a number; the unit nM goes unstated.

Give its IC50 value. Item: O=C1CN(c2cccc(-c3cnc4ccc(N5CCCC5c5cccc(F)c5)nn34)n2)CCN1 (stereo not shown)
0.7

# query: IC50 of entry O=C(c1cccc(-c2cnc3ccc(N4CCCC4c4cccc(F)c4)nn23)n1)N1CCC(O)CC1 (stereo not shown)
65

I'd like to know its IC50. The compound in question is OCCN1CCN(c2cccc(-c3cnc4ccc(N5CCOCC5c5cccc(F)c5)nn34)n2)CC1 (stereo not shown)
3.8

Given OC1CCN(Cc2cccc(-c3cnc4ccc(N5CCCC5c5cccc(F)c5)nn34)n2)C1 (stereo not shown) , state its recorded IC50.
1020

Tell me the measured IC50 of Fc1ccc(F)c(C2CCCN2c2ccc3ncn(-c4cccc(-c5ncc[nH]5)c4)c3n2)c1 (stereo not shown) , please.
1600

Give the measured IC50 of CN(C)c1nccc(-c2cccc(-c3cnc4ccc(N5CCCC5c5cccc(F)c5)nn34)n2)n1 (stereo not shown) .
115

Quick one: IC50 for CN(C)c1ccc(-c2cnc3ccc(N4CCCC4c4cc(F)ccc4F)nn23)cc1C#N (stereo not shown) ?
166

---

# Target system: full length rTrkA and mNGF (Rattus norvegicus)
# Construct: co-expressing full length rTrkA and mNGF; expressed in transfected cells; host or cells: Ba/F3 cells
# Sequence (P35739 33-799): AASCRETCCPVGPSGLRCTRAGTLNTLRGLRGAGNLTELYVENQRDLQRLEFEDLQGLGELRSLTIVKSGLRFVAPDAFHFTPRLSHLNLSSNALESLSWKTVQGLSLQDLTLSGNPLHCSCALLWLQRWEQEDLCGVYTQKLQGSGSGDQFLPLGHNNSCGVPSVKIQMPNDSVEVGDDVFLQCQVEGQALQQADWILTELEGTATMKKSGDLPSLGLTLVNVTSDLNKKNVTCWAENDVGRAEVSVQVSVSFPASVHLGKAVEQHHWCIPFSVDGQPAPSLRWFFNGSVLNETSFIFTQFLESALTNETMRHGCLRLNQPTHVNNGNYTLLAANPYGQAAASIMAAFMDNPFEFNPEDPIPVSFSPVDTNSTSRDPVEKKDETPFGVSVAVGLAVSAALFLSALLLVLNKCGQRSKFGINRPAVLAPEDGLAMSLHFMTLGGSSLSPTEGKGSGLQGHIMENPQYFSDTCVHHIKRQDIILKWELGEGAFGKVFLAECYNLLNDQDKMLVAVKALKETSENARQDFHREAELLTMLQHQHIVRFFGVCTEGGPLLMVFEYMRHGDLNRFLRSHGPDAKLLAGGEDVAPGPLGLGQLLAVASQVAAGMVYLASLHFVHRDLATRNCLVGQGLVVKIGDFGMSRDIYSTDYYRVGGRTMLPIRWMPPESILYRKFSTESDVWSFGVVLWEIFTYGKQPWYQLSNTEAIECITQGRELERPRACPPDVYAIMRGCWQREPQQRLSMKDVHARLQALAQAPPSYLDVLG
# Sequence (P01139 122-241 partner): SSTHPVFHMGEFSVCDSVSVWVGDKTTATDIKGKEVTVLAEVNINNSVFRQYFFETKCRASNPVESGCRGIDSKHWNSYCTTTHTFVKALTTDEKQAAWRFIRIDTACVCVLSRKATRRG
# Test protocol: Inhibition of proliferation of Ba/F3 cells co-expressing full length rTrkA and mNGF (BaF3/TrkA-NFG)
# Format: cell-based
# Experimental setup: BaF3 TRKA-NGF cells, CTG readout
Would you mind telling me the reported BaF3 TRKA-NGF CTG IC 50 of each entry?
Field: numeric (µM). Do not append units.

Lab request: please report BaF3 TRKA-NGF CTG IC 50 under test system full length rTrkA and mNGF (Rattus norvegicus) for Fc1cccc(C2CCCN2c2ccc3ncc(-c4cncc(-n5ccnc5)n4)n3n2)c1 (stereo not shown)
0.074

Lab note: need BaF3 TRKA-NGF CTG IC 50 with full length rTrkA and mNGF (Rattus norvegicus) for entry CN(C)c1nccc(-c2cccc(-c3cnc4ccc(N5CCCC5c5cccc(F)c5)nn34)n2)n1 (stereo not shown) , please look it up.
0.21

Please tell me: BaF3 TRKA-NGF CTG IC 50 of OC1CCN(c2nccc(-c3cccc(-c4cnc5ccc(N6CCCC6c6cccc(F)c6)nn45)n3)n2)CC1 (stereo not shown) , system full length rTrkA and mNGF (Rattus norvegicus)?
0.020

Item N#Cc1cccc(-n2cnc3ccc(N4C(=O)CSC4c4cc(F)ccc4F)nc32)c1 (stereo not shown) with full length rTrkA and mNGF (Rattus norvegicus) - BaF3 TRKA-NGF CTG IC 50?
3.58

State its BaF3 TRKA-NGF CTG IC 50 on full length rTrkA and mNGF (Rattus norvegicus): NC(=O)C1CCCN(c2cccc(-c3cnc4ccc(N5CCOCC5c5cccc(F)c5)nn34)n2)C1 (stereo not shown)
0.062

API: value(readout=BaF3 TRKA-NGF CTG IC 50, system=full length rTrkA and mNGF (Rattus norvegicus)) for record O=C(Nc1cnc(-c2cnc3ccc(N4CCCC4c4cccc(F)c4)nn23)cn1)C1CC1 (stereo not shown)
0.11

API: value(readout=BaF3 TRKA-NGF CTG IC 50, system=full length rTrkA and mNGF (Rattus norvegicus)) for record N#Cc1cccc(-n2cnc3ccc(N4CCSC4c4cc(F)ccc4F)nc32)c1 (stereo not shown)
0.45

---

For each record, write down the corresponding log10 of IC50.
# Target system: Tel-TrkA (Homo sapiens, UniProt P04629)
# Construct: dimerization domain of Tel (ETV6) transcription factor (fusion partner, human ETV6 P41212); expressed in transfected cells; host or cells: luciferase expressing Ba/F3 murine hematopoietic progenitor cells; the other entry of the earlier key: ETV6 (P41212, Transcription factor ETV6)
# Test protocol: Inhibition of proliferation of Ba/F3 cells expressing Tel-TrkA (BaF3/Tel-TrkA, luciferase/Bright Glo readout)
# Type: cell-based
# Experimental setup: read-out: Ba/F3 Tel-TrkA IC 50
The figures below represent log10 of IC50, where IC50 is stated in nM.

I'd like to know its log10 of IC50. The compound in question is O=C1CCN(c2cccc(-c3cnc4ccc(N5CCC[C@@H]5c5cccc(F)c5)nn34)n2)CC1 [Table 7-Compound 181]
0.85

So what's the measured log10 of IC50 for this one? CN1CCN(c2cnc(-c3cnc4ccc(N5CCCC5c5cccc(F)c5)nn34)cn2)CC1 (stereo not shown) [Table 3-Compound 7]
1.54

Would you mind telling me what log10 of IC50 value was observed for CCN(CC)S(=O)(=O)N1CCN(c2cccc(-c3cnc4ccc(N5CCC[C@@H]5c5cccc(F)c5)nn34)n2)CC1 [Table 7-Compound 231] ?
1.36

Can you share its log10 of IC50? I mean this compound: CCOC(=O)C1CCN(c2cccc(-c3cnc4ccc(N5CCOCC5c5cccc(F)c5)nn34)n2)CC1 (stereo not shown) [Table 7-Compound 17]
1.91

Recorded log10 of IC50 for OCCN1CCN(c2cccc(-c3cnc4ccc(N5CCCC5c5cccc(F)c5)nn34)n2)CC1 (stereo not shown) [Table 7-Compound 100] , please?
0.30

So what does the record say about log10 of IC50 for Fc1cccc(C2COCCN2c2ccc3ncc(-c4cccc(OC5CCNCC5)n4)n3n2)c1 (stereo not shown) [Table 2-Compound 18] ?
1.56

Any idea what log10 of IC50 was measured for CC(C)c1noc(C2CCN(c3cccc(-c4cnc5ccc(N6CCOCC6c6cccc(F)c6)nn45)n3)CC2)n1 (stereo not shown) [Table 7-Compound 21] ?
1.95

---

# Target system: Tel-TrkA (Homo sapiens, UniProt P04629)
# Construct: dimerization domain of Tel (ETV6) transcription factor (fusion partner, human ETV6 P41212); expressed in transfected cells; host or cells: luciferase expressing Ba/F3 murine hematopoietic progenitor cells; the other entry of the earlier key: ETV6 (P41212, Transcription factor ETV6)
# Test protocol: Inhibition of proliferation of Ba/F3 cells expressing Tel-TrkA (BaF3/Tel-TrkA, luciferase/Bright Glo readout)
# Type: cell-based
# Experimental setup: read-out: Ba/F3 Tel-TrkA IC 50
Just a reminder that ties go to Criterion not met: only IC50 strictly below 20 nM counts as Criterion met.

Below 20 nM on IC50? Entry O=C(C1CCN(c2cccc(-c3cnc4ccc(N5CCOCC5c5cccc(F)c5)nn34)n2)CC1)N1CCC(O)C1 (stereo not shown)
Criterion met

Item Fc1cccc(C2CCCN2c2ccc3ncc(-c4cccc(-c5cnco5)n4)n3n2)c1 (stereo not shown) : IC50 beneath 20 nM, strictly?
Criterion met

Please let me know if OCc1cccc(-c2cnc3ccc(N4CCCC4c4cccc(F)c4)nn23)n1 (stereo not shown) shows IC50 below 20 nM.
Criterion met

Strictly below 20 nM: is that where IC50 of O=C(Nc1cnc(-c2cnc3ccc(N4CCCC4c4cccc(F)c4)nn23)cn1)C1CC1 (stereo not shown) sits?
Criterion not met

Item Fc1cccc(C2CCCN2c2ccc3ncc(-c4cncc(-n5ccnc5)n4)n3n2)c1 (stereo not shown) : IC50 beneath 20 nM, strictly?
Criterion not met

Determine whether this compound shows IC50 lower than 20 nM (ties excluded): Fc1cccc(C2CCCN2c2ccc3ncc(-c4csc(CN5CCNCC5)n4)n3n2)c1 (stereo not shown)
Criterion not met

Dear reviewer, please state whether N#Cc1cc(-c2cnc3ccc(N4CCOCC4c4cccc(F)c4)nn23)ccc1N1CCC(O)CC1 (stereo not shown) has IC50 strictly beneath 20 nM.
Criterion not met

---

# Target system: Tel-TrkA (Homo sapiens, UniProt P04629)
# Construct: dimerization domain of Tel (ETV6) transcription factor (fusion partner, human ETV6 P41212); expressed in transfected cells; host or cells: luciferase expressing Ba/F3 murine hematopoietic progenitor cells; the other entry of the earlier key: ETV6 (P41212, Transcription factor ETV6)
# Test protocol: Inhibition of proliferation of Ba/F3 cells expressing Tel-TrkA (BaF3/Tel-TrkA, luciferase/Bright Glo readout)
# Assay type: cell-based
# Experimental setup: read-out: Ba/F3 Tel-TrkA IC 50
Assay metric: pIC50
Note on units: pIC50 is unitless, being -log10 of a concentration expressed in mol/L.

I have this compound here, Fc1cccc(C2COCCN2c2ccc3ncc(-c4cccc(N5CC6CC5CN6)n4)n3n2)c1 (stereo not shown) [Table 7-Compound 9] , and I need its recorded pIC50.
7.23

State the recorded pIC50 for this entry: OC1CCN(c2ccc(-c3cccc(-c4cnc5ccc(N6CCCC6c6cccc(F)c6)nn45)n3)cn2)CC1 (stereo not shown) [Table 7-Compound 61]
8.09

Would you kindly share the measured pIC50 for CC(C)(C)OC(=O)N1CCC(Oc2ncc(-c3cnc4ccc(N5CCCC5c5cccc(F)c5)nn34)cn2)CC1 (stereo not shown) [Table 7-Compound 176] ?
5.95

Quick one: pIC50 of Cc1c[nH]c(C2CCN(c3cccc(-c4cnc5ccc(N6CCOCC6c6cccc(F)c6)nn45)n3)CC2)n1 (stereo not shown) [Table 7-Compound 143] ?
7.47

What does the record list as pIC50 for O=C(COCc1ccccc1)N1CCN(c2cccc(-c3cnc4ccc(N5CCC[C@@H]5c5cccc(F)c5)nn34)n2)CC1 [Table 7-Compound 191] ?
7.85

Recorded pIC50 of CN1CCC(N2CCN(c3cccc(-c4cnc5ccc(N6CCOCC6c6cccc(F)c6)nn45)n3)CC2)CC1 (stereo not shown) [Table 7-Compound 8] , please.
8.09

Would you kindly share the measured pIC50 for N#Cc1cccc(-n2cnc3ccc(N4C(=O)CSC4c4cc(F)ccc4F)nc32)c1 (stereo not shown) [Table 1-Compound 5] ?
5.25
